Test system: MS2 coat protein
ASSAY_EXPLANATION: apparent KD of MS2 coat protein; designed switch direction (-1 OFF switch, 1 ON switch): -1; higher = weaker reporter binding
SETTINGS: input ligand: none
RECORDED_METRIC: apparent KD of MS2 coat protein (nM)
Just the number in nM, nothing appended.

(Q) Name the recorded apparent KD of MS2 coat protein for GGCCUUCCACAAGCUUUUUACAUGAGGAUCACCCAUGUGGUUUUUAGUCUUAUCCCGGGCCCGAUGUCGGGCCCGGG [-33.4, -54.7, A 16%] (Eterna round: R97, puzzle: Sensor, turn-off variant 1) .
(A) 28.4

(Q) Name the recorded apparent KD of MS2 coat protein for GUUCGACAUGAGGAUCACCCAUGUGAGGAUAUACGAUUAGCUGCUAGGUAGUUAGUAUGUAGAAGGUGCGUGUU [EX1 #70] (Eterna round: R97, puzzle: Exclusion 1) .
(A) 54.2

(Q) Name the recorded apparent KD of MS2 coat protein for CUCGUGUGAGGAUAUCCUCUUAUAUAACAAAGGUUGAAGCAGGAGAAGGCACAUGAGGAUCACCCAUGUGCAUA [EX4 C.6] (Eterna round: R97, puzzle: Exclusion 4) .
(A) 16.9

(Q) Name the recorded apparent KD of MS2 coat protein for AGCGAAUAGCUAGGAUAUGAGAAUAGAUAGAGCUCAGAAGGAGCACAUGAGGAUCACCCAUGUAAAGUCUUGAGGCUGCGUGGU [Prohibition 16 - Jieux - Exclusion NG 1] (Eterna round: R96, puzzle: Exclusion NG 1) .
(A) 66.3

(Q) Name the recorded apparent KD of MS2 coat protein for UGCGGGCUUUUGAGACCUCACAUGAGGAUCACCCAUGUGCUUGUCUUGUAAGUGGGUAGGUCGUUGGCUGACUCACA [Sensor-V1 #100] (Eterna round: R97, puzzle: Sensor, turn-off variant 1) .
(A) 17.5

---

Tested on: MS2 coat protein
ASSAY_EXPLANATION: apparent KD of MS2 coat protein; designed switch direction (-1 OFF switch, 1 ON switch): -1; higher = weaker reporter binding
SETTINGS: input ligand: none
Would you mind telling me the reported apparent KD of MS2 coat protein of each entry?
Just the number in nM, nothing appended.

(Q) Name the recorded apparent KD of MS2 coat protein for GCCGAAAGUGUGAGGAUAUACCUAUGGAUACAUAGGUAGAAGGCACAUGAGGAUCACCCAUGUGGGAAAACGGC [Eli bmx4 4.30] (Eterna round: R97, puzzle: Brourd's mod of Exclusion 4) .
(A) 190

(Q) Name the recorded apparent KD of MS2 coat protein for AGUACUAACACGAAAGUGUUAGUACAAAUGAGCUUUUGAACAUGAGGAUCACCCAUGUCCUCAUAAGCUCGUCUUAA [Mat - Sensor v2 - var 2 - Mod - D174] (Eterna round: R96, puzzle: Sensor v2, turn-off variant 2) .
(A) 32.2

(Q) Name the recorded apparent KD of MS2 coat protein for AGCUGUGGCCAAGGAUAUCCAGCCUUAAAUACCGACGUAUAGUCGGACAUGAGGAUCACCCAUGUGGAGAAGGUGGUCUCAGCA [Eli eng2 - 040] (Eterna round: R96, puzzle: Exclusion NG 2) .
(A) 56.8

(Q) Name the recorded apparent KD of MS2 coat protein for UGUUGUCGCGCAGGAUAUGAGGAUCACCCAUAUAAAGGAUAUGAAAAGAAGGUUCUGAGGAUCACCCAGAAGGGCGGGACAACU [pwkr exNG2 2xF5 2xFMN.18] (Eterna round: R96, puzzle: Exclusion NG 2) .
(A) 62.6

---

Test system: MS2 coat protein
ASSAY_EXPLANATION: apparent KD of MS2 coat protein; designed switch direction (-1 OFF switch, 1 ON switch): 1; higher = weaker reporter binding
SETTINGS: input ligand: FMN 200 uM
Please note: true applies when apparent KD of MS2 coat protein is 40 nM or greater, and false applies otherwise.

(Q) Record GGUGGGUUACUACCCACACAUGAGGAUCACCCAUGUAUUGGGAAGGAUAUGGUACCUAUUUGGUACCAGAAGGUCCUGAUGGUG [SS-NG3-LRO15] (Eterna round: R96, puzzle: Same State NG 3) ; criterion: apparent KD of MS2 coat protein no lower than 40 nM. Met?
(A) true

(Q) Record GCUAGAAAUAAUGCCAACAUGAGGAUCACCCAUGUAUGUUGGCAGGAUAUCGUUUGCUUUGCAAACGAGAAGGGCUAAACUAGC [Mat - Same State NG 3 - JL Mod - D7] (Eterna round: R96, puzzle: Same State NG 3) ; criterion: apparent KD of MS2 coat protein no lower than 40 nM. Met?
(A) true

(Q) Record AUUUUUGAUGCAGGAUAUGAUUAACAUGAGGAUCACCCAUGUGGUGUUGUGAGUAAGGAGAGUGAUCAGAAGGGCAUUUUUUUU [JMF's solution 93] (Eterna round: R96, puzzle: Same State NG 2) ; criterion: apparent KD of MS2 coat protein no lower than 40 nM. Met?
(A) true

(Q) Record UUACUCAUGUAAGGAUAUGCAGCCGAAACGGCUGCAGAAGGUACUAUAAUACAUGAGGAUCACCCAUGUAAAAUAAAUAAAGUU [Mat - Same State NG 1 - JL mod - D97] (Eterna round: R96, puzzle: Same State NG 1) ; criterion: apparent KD of MS2 coat protein no lower than 40 nM. Met?
(A) false

(Q) Record GGAAAGAGGUUAGGAUAUGCAUGGCUGGGACAUGAGGAUCACCCAUGUAAUAGAAGAAAUCUACAGUAGAAGGGACAAGGAAGG [AK SSNG2-V2-8] (Eterna round: R96, puzzle: Same State NG 2) ; criterion: apparent KD of MS2 coat protein no lower than 40 nM. Met?
(A) true

(Q) Record AUGAAUUUGCGAGGAUAUCGUUUGUUGAAGUUACGAGAAGGCGCUCACUUUACAUGAGGAUCACCCAUGUUUAUGUUUUAUGAU [JR_SSNG1_Sub075] (Eterna round: R96, puzzle: Same State NG 1) ; criterion: apparent KD of MS2 coat protein no lower than 40 nM. Met?
(A) false

(Q) Record GGAGCCAAGGCAGGAUAUUCAUAUUAAUAACACAUGAGGAUCACCCAUGUGGCCAGAAGGCCAUGGGAGAAGGGCCAUGGCUCG [Xeonanis - 13 mod10] (Eterna round: R96, puzzle: Same State NG 2) ; criterion: apparent KD of MS2 coat protein no lower than 40 nM. Met?
(A) true

(Q) Record UCGGGCGUACUUGCUGACAUGAGGAUCACCCAUGUCCUUGGGCAGGAUAUGGUUCCGUUUCGGUUCCAGAAGGUCCUGGCUGCU [salish99_SSNG3_r04_318] (Eterna round: R96, puzzle: Same State NG 3) ; criterion: apparent KD of MS2 coat protein no lower than 40 nM. Met?
(A) false

---

Tested on: K4 kissing-loop RNA reporter;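 also: bound reporter read as fluorescence of individual clusters on recovered sequencing chips by microscopy, with normalized cluster intensities fitted with a binding model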
ASSAY_EXPLANATION: apparent KD of K4 kissing-loop reporter; higher = weaker reporter binding
SETTINGS: Eterna round: R107; input ligand: theophylline 20 uM
RECORDED_METRIC: apparent KD of K4 kissing-loop reporter
Quick note: unit goes after the number.

(Q) Name the recorded apparent KD of K4 kissing-loop reporter for CACCAUGAAUUCUCUAGGAGUGAUGUUUUUCGAGGACCGGUACGGCCGCCACUCGGACGAGGACCGUGGGAGCGGCGAAAAGACU [ghgmullin] .
(A) 152 nM

(Q) Name the recorded apparent KD of K4 kissing-loop reporter for GGAUAGGACUGAGGAUAUGGGCUAGGCAAGAAUAACUUGUCUAGCAAAUCCAUGAGGAGUGAUGUUCCAGAAGGCAGUCCUAUCG [FmnBX 1 U10+A76] .
(A) 167 nM

(Q) Name the recorded apparent KD of K4 kissing-loop reporter for GGCUAGACUUAGCUAGGUACAUAAUACGAUACCAGUCUAGAAAUAGACCCUUGGCAGCGUAGGCAGUGAUGUUGCCACUAGCUGA [Theo B SS t7] .
(A) 144 nM

---

Would you mind telling me the reported apparent KD of MS2 coat protein of each entry?
Test system: MS2 coat protein
ASSAY_EXPLANATION: apparent KD of MS2 coat protein; designed switch direction (-1 OFF switch, 1 ON switch): -1; higher = weaker reporter binding
SETTINGS: input ligand: FMN 200 uM
Just the number in nM, nothing appended.

(Q) Name the recorded apparent KD of MS2 coat protein for UAAAUAAAUGUAGGAUAUCUGCACGUGUAGUGCAGAGAAGGACAUGAGGAUCACCCAUGUAUAGUAGCUUCGGCUACAAAUAAU [ENG1-C3] (Eterna round: R96, puzzle: Exclusion NG 1) .
(A) 110

(Q) Name the recorded apparent KD of MS2 coat protein for AAUUAGUAUGUGAGGAUAUUGACGGAAUGACUUGUUAAGAAGGCACAUGAGGAUCACCCAUGUGGGAAGUCACG [JR_BMEx4_Sub012] (Eterna round: R97, puzzle: Brourd's mod of Exclusion 4) .
(A) 57.1

(Q) Name the recorded apparent KD of MS2 coat protein for AACACACAUGAGGAUCACCCAUGUGAGGAUAUCGUCGAGGAUGUAAUGCCAUCCGUGACGAGAAGGCACUUGGG [Exclusion 1 (Mod 3 solution 40 by Eternabot)] (Eterna round: R97, puzzle: Exclusion 1) .
(A) 58.8

(Q) Name the recorded apparent KD of MS2 coat protein for GCGGACUUGAACGUGAGUUCAGAGACAUGAGGAUCACCCAUGUAGGAUAUCGAUUCGAAACGAAUCGAGAAGGGCAUAGUCCGC [JL denovo 13] (Eterna round: R96, puzzle: Exclusion NG 3) .
(A) 23.3

(Q) Name the recorded apparent KD of MS2 coat protein for UUUUCCUGGCAAGGAUAUCCUGUGCGGUUCCGGCUCGUGUCUGUUACAUGAGGAUCACCCAUGUGGGAGAAGGUGCCUGUGGUU [Design 89] (Eterna round: R96, puzzle: Exclusion NG 2) .
(A) 272

(Q) Name the recorded apparent KD of MS2 coat protein for ACAAGCUUGUAAUGAUUUAACAUGAGGAUCACCCAUGUAAAUGGAAGAACCAAUUUGAUAUGAUUUACUCGUCUUAU [JR_STOV1_Sub008] (Eterna round: R97, puzzle: Sensor, turn-off variant 1) .
(A) 495

(Q) Name the recorded apparent KD of MS2 coat protein for CACUUACAUGAGGAUCACCCAUGUGAGGAUAUCGUGACCUGACGAGAAGUCAAUGUCACGAGAAGGUACAUGGG [Exclusion 1 (Mod 1 solution 97 by Eternabot)] (Eterna round: R97, puzzle: Exclusion 1) .
(A) 59.3

(Q) Name the recorded apparent KD of MS2 coat protein for CAGUCAGCGCAGGAUAUCUGCUCGGUGACAGACGGAGAAGGGUGCACAUGAGGAUCACCCAUGUGAAUCUCUAA [Eternabot (Original) Solution 3] (Eterna round: R97, puzzle: Exclusion 6) .
(A) 21.4

(Q) Name the recorded apparent KD of MS2 coat protein for UUUAAGUCAGGAUAUCGUUAAUUUAAUAAAUUAAUUUAAUUCGAGAAGGGACAUGAGGAUCACCCAUGUAAUUU [Ex4 #2] (Eterna round: R97, puzzle: Exclusion 4) .
(A) 33.5
